Consider the following compounds and their measured EC50 readings.
- target: human MC-4R (Homo sapiens)
- Construct: expressed in transfected cells
- Sequence (P32245 whole entry): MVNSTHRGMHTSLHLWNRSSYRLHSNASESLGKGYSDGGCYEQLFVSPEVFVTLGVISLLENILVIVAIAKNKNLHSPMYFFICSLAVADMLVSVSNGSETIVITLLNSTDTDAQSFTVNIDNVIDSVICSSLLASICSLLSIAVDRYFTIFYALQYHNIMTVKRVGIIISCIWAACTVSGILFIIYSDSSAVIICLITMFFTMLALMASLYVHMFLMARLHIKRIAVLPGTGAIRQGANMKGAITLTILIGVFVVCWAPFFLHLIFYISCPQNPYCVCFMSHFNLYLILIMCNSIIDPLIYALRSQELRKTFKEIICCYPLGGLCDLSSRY
- protocolText: Biological Assay: inhibition of AgRP functional interaction with MC-4R in presence of αMSH (cAMP production)
- Assay type: cell-based
- testSettings: HEK293 cells expressing human MC-4R, AgRP83-132 and αMSH present; read-out: Average EC50 (nM) in Biological Assay
Answer in nM, number only, no unit symbol.

# compound, EC50, nM
rows = [
    ("CCc1ccc(CN(CCC(=O)O)c2nc(C3CCC(C(C)(C)C)CC3)cs2)s1 (centres unmarked)", 171),
    ("Cc1cc(CN(CCC(=O)[O-])c2nc(C3CCC(c4ccccc4)CC3)cs2)c(C)s1.[Na+] (centres unmarked)", 219),
    ("Cc1ccc(CN(CCC(=O)O)c2nc(CC3CCC(C)CC3)cs2)s1 (centres unmarked)", 205),
    ("CCC1(c2csc(N(CCC(=O)O)Cc3ccc(C)s3)n2)CCC(C(C)C)CC1 (mixture of isomers)", 58),
    ("Cc1ccc(CN(CCC(=O)O)c2nc(C3CC(C)(C)CC(C)(C)C3)cs2)s1", 307),
]

Tell me the measured EC50 of CCc1ccc(CN(CCC(=O)O)c2nc(C3CCC(C(F)(F)F)CC3)cs2)s1 (centres unmarked) , please. 259

Tell me the measured EC50 of CCc1ccc(CN(CCC(=O)[O-])c2nc(C3CCC(C)CC3)cs2)s1.[Na+] (centres unmarked) , please. 241

Tell me the measured EC50 of Cc1ccc(CN(CCC(=O)O)c2nc(C3CCc4ccccc4C3)cs2)s1 (centres unmarked) , please. 602
